Reported IC50 by item:
Assay: Cytotoxicity against human HLC2 cells after 6 days by WST8 dye reduction assay
Type: functional, cell-based
Conditions: HLC2, 144 h
property.name: IC50 (µM)

INSERT INTO results (structure_string, number) VALUES
  ('CC(C)=CCc1cc(/C=C\C(=O)O)cc2c1OC(C)(C)C=C2', 10),
  ('CC(C)=CCc1cc(/C=C/C(=O)O)cc2c1OC(C)(C)C=C2', 100);
